# Test system: A549 NSCLC
# EXPERIMENT DESCRIPTION: NCI tumour cell line growth inhibition, 48 h
OUTCOME MEASURE: TGI

MOLECULE	TGI
Cc1cc(N(CCC#N)S(=O)(=O)c2ccccc2)ccc1/C=C1\N=C(c2ccc(Cl)cc2)OC1=O	> 100 µM
CCc1cccc2c3c([nH]c12)-c1ccccc1NC(=O)C3	> 100 µM
CC1=CC2C(C(O)CC3(C)C2CC(C)C32OCOC23COCO3)C2(C)C/C(=C/O)C(=O)C=C12 (centres undefined)	10.7 µM
Clc1sc(Cl)c2c1[C@@H](Cl)C[C@@H]2Cl	> 100 µM

Required: TGI, one value per molecule below.
1. NNC(=O)Nc1nc2ccc(NN)cc2[nH]1
2. O=C1C2C(C(=O)N1c1ccccc1)C1c3ccccc3C2C2C(=O)N(c3ccccc3)C(=O)C21 (centres undefined)

(A)
1. > 100 µM
2. > 100 µM

Required: TGI, one value per molecule below.
1. COc1ccc2c(c1)nc(NNC(=O)c1cnccn1)c1cccn12
2. C=CO/N=[N+](\[O-])N(CC)CC
3. C/C(CC(=O)NCCc1ccccc1)=N\NS(=O)(=O)c1ccc(C)cc1

(A)
1. 3.45 µM
2. > 100 µM
3. > 100 µM

* * *

# Tested on: UACC-257 melanoma
# EXPERIMENT DESCRIPTION: NCI tumour cell line growth inhibition, 48 h
OUTCOME MEASURE: TGI

// below: answered compounds
CPD SMILES	TGI
COc1cccc(N=N/C(=N/NC(=O)c2ccc(C)cc2)c2ccc(N(CCC#N)CCC#N)cc2OC)c1	> 100 µM
Cc1cc(N(CCC#N)S(=O)(=O)c2ccccc2)ccc1/C=C1\N=C(c2ccc(Cl)cc2)OC1=O	> 100 µM

Next compound, TGI to be filled in.
// assay UACC-257 melanoma, entry CCN1C/C(=C\c2ccc(Cl)cc2)c2nc(N)c(C#N)c(-c3ccc(Cl)cc3)c2C1 , TGI value = > 100 µM

* * *

// NCI-H460 lung GI50 records

// below: answered compounds
COMPOUND	GI50
Nc1ccn(C2CC(F)C(CO)O2)c(=O)n1 (stereo not drawn)	> 100 µM
Cc1cn2c(/C=C3/C(=O)Nc4c3ccc3ccccc43)c(C(F)(F)F)nc2s1	0.501 µM

Next compound, GI50 to be filled in.
Entry N#Cc1nc(-c2ccc(F)cc2)oc1S(=O)(=O)N1CCCCC1 — recorded GI50 = 4.77 µM

* * *

# Test system: HCT-15 colon
# EXPERIMENT DESCRIPTION: NCI tumour cell line growth inhibition, 48 h
Answer each item with its documented TGI.

// below: answered compounds
COMPOUND	TGI
CCC[CH2][Sn]([CH2]CCC)([O]C(=O)c1cc(OC)c(OC)cc1OC)[O][Sn]([CH2]CCC)([CH2]CCC)[O]C(=O)c1cc(OC)c(OC)cc1OC	1.71 µM
CCC(=O)N1C/C(=C/c2ccc(Cl)cc2)C(=O)/C(=C/c2ccc(Cl)cc2)C1	1.25 µM
O=C1COc2cc(N3CCN(c4cccc(C(F)(F)F)c4)CC3)ccc2N1	> 100 µM
CC(=O)O[C@H]1CC[C@@]2(C)C(=CC[C@@H]3[C@@H]2CC[C@]2(C)C(=N/O)/C(=C\c4ccccc4)C[C@@H]32)C1	> 100 µM
Fc1cccc(F)c1C1SCc2nc3cc(Cl)c(Cl)cc3n21 (stereo unspecified)	> 100 µM

Next compound, TGI to be filled in.
Entry COC(=O)c1ccccc1C1CN=NC12Cc1c(ccc3c1CCC3)C2=O (stereo unspecified) — recorded TGI = > 100 µM

* * *

# System: COLO 205 colon
# EXPERIMENT DESCRIPTION: NCI tumour cell line growth inhibition, 48 h
Answer each item with its documented TGI.

// below: answered compounds
COMPOUND	STUDY SYSTEM	EXPERIMENTAL VALUE
COC(=O)CCC(NC(=S)N/N=C(\C)c1ccc[nH]1)C(=O)OC (configuration not stated)	COLO 205 colon	> 100 µM
Cc1ccc(S(=O)(=O)NC(=O)NC(Cc2ccc(O)cc2)C(=O)O)cc1 (configuration not stated)	COLO 205 colon	> 100 µM
CN1C(=O)c2ccc3ccccc3c2C1=O	COLO 205 colon	> 100 µM
Cc1ccc(/C=C(\C#N)c2cc3ccccc3n2C)cc1	COLO 205 colon	> 43.5 µM
COC(C)(C)[C@@H](O)[C@H](O)C[C@H](C)C1=C2CC[C@@H]3[C@@]4(C)CC[C@@H](OC(C)=O)C(C)(C)[C@@H]4C[C@@H](OC4OC(COC(C)=O)C(O)C(O)C4O)[C@@]3(C)[C@]2(C)CC1 (some centres not stated)	COLO 205 colon	22.8 µM

Required: TGI, one value per compound below.
1. COC1C(OC(=O)c2ccc(C)[nH]2)C(O)C(Oc2ccc3c(O)c(NC(=O)c4c[nH]c(C(=O)Nc5c(O)c6ccc(OC7OC(C)(C)C(OC)C(OC(=O)c8ccc(C)[nH]8)C7O)c(C)c6oc5=O)c4C)c(=O)oc3c2C)OC1(C)C (configuration not stated)
2. Cc1cc2[nH]c3c(C#N)c(-c4ccccc4)c(N=Nc4ccc(F)cc4)c(=O)n3c2cc1C
3. COc1cc2ccc(C(=O)NCCCNC(=O)c3ccc4cc(OC)c(OC)cc4c3)cc2cc1OC
4. C[C@]12CC[C@H]3[C@@H](CCC4=CC(=O)C=C[C@@]43OC(=O)C(F)(F)F)[C@@H]1CCC2=O
5. Cc1c(C(=O)c2ccc(N)c3ccccc23)c2ccccc2n1CCN1CCOCC1
6. COc1cc(CNc2nc3c(N)cc(C(F)(F)F)cc3nc2-c2ccccc2)cc(OC)c1OC

(A)
4.38 µM
> 100 µM
> 100 µM
> 100 µM
86.9 µM
> 100 µM

Required: TGI, one value per compound below.
1. COc1cc2cc(C(=O)N3CC(COS(C)(=O)=O)c4ccc(NC(=O)OCc5ccccc5)cc43)[nH]c2c(OC)c1OC (configuration not stated)
2. Cc1ccc2nc3ccccc3c(NCc3ccc(Cl)cc3)c2c1
3. CC1CC[C@@]2(OC1)O[C@H]1[C@H](O)[C@H]3[C@@H]4CC[C@H]5C[C@@H](OC6OC(CO)C(OC7OC(CO)C(O)C(OC8OCC(O)C(O)C8O)C7OC7OC(CO)C(O)C(O)C7OC7OC(CO)C(O)C(O)C7O)C(O)C6O)[C@H](O)C[C@]5(C)[C@H]4CC[C@]3(C)[C@H]1[C@@H]2C (some centres not stated)
4. COC(=O)c1cc(-c2ccccc2)[nH]c1N/N=C/c1c(Cl)cccc1Cl
5. CN(Cc1cnc2nc(N)nc(N)c2n1)c1ccc(C(=O)NC23CC4CC(CC(C4)C2)C3)cc1
6. CN1CCN(Cc2c[nH]c3c2C(=O)c2c(c(O)c4ccccc4c2O)C3=O)CC1

(A)
["> 100 µM", "3.39 µM", "> 10 µM", "> 40.1 µM", "24 µM", "70.7 µM"]

Required: TGI, one value per compound below.
1. O=c1[nH]c(=O)n(C2CC(O)C(CO)O2)cc1Oc1ccccc1 (configuration not stated)
2. O=C(O)C[C@H](O)C[C@H](O)/C=C/c1c(C2CC2)nc2ccccc2c1-c1ccc(F)cc1
3. COc1cc2c(cc1OC)C(C(=O)O)C(c1ccccc1)N(C)C2=O (configuration not stated)
4. Cc1ccc(S(=O)(=O)Oc2ccc3c4c(c(=O)oc3c2)CCCCCC4)cc1
5. CN(C)C(=O)Nc1nc2cc(Cl)c(Cl)cc2[nH]1

(A)
1. > 100 µM
2. > 100 µM
3. > 100 µM
4. > 100 µM
5. 5.08 µM

* * *

# Test system: RPMI-8226 leukemia
# EXPERIMENT DESCRIPTION: NCI tumour cell line growth inhibition, 48 h
Answer each item with its documented TGI.

MOLECULE	STUDY SYSTEM	EXPERIMENTAL VALUE
[2H]C([2H])([2H])NC(=O)c1nnc(NC(=O)C2CC2)cc1Nc1cccc(-c2ncn(C)n2)c1OC	RPMI-8226 leukemia	> 100 µM
Nc1cc2c(c3ccccc13)C(CCl)CN2C(=O)c1cc2cc(NC(=O)Nc3ccc4[nH]c(C(=O)N5CC(CCl)c6c5cc(N)c5ccccc65)cc4c3)ccc2[nH]1 (stereo unspecified)	RPMI-8226 leukemia	> 23.3 µM
C/C=C(\C)C(=O)OC1CC(OC(C)=O)C2(C(=O)OC)COC3C2C1(C)C1C2(C(=O)OC)OCC1(C3O)C1(O)C3CC(C4(O)C=COC4O3)C1(C)O2 (stereo unspecified)	RPMI-8226 leukemia	> 100 µM
CSC(=S)Nc1cc(C)cc(C)n1	RPMI-8226 leukemia	> 31.6 µM
O=C(O)CSc1ccccc1C(=O)O	RPMI-8226 leukemia	> 100 µM

Entry [N-]=[N+]=NC(c1cn(C2CC(O)C(CO)O2)c(=O)[nH]c1=O)C(Cl)Br (stereo unspecified) — recorded TGI = > 100 µM
